Values compiled from patent US7816560B1.

system: MDBK cells; experiment: Toxicity / cell cytotoxicity in MDBK cells; type: cell-based; conditions: N-alkyl DNJ at 100 μM
For each record, write down the corresponding % Viability at 100 μM.
Numbers only, in %.

Example entries begin here.
Q) Notebook entry, MDBK cells assay: % Viability at 100 μM of "CCCCCCN1C[C@H](O)[C@@H](O)[C@H](O)[C@H]1CO" = ?
A) 71

Q) What reported % Viability at 100 μM corresponds to CCCCN1C[C@H](O)[C@@H](O)[C@H](O)[C@H]1CO [N-butyl DNJ, N-butyl deoxynojiricmycin, reference compound] on MDBK cells?
A) 77

Q) Form field - read-out: % Viability at 100 μM; system: MDBK cells; submitted item: "CCCCCCCCCCCCN1C[C@H](O)[C@@H](O)[C@H](O)[C@H]1CO"
A) 1

Q) Provide the documented % Viability at 100 μM with MDBK cells as the system for "CCCCCCCCN1C[C@H](O)[C@@H](O)[C@H](O)[C@H]1CO"
A) 71

Q) Find % Viability at 100 μM (MDBK cells) for the entry "CCCCCCCCCCN1C[C@H](O)[C@@H](O)[C@H](O)[C@H]1CO"
A) 43

Now take the following molecule into account.
Q) What measured % Viability at 100 μM is associated with "CCCCCCCCCN1C[C@H](O)[C@@H](O)[C@H](O)[C@H]1CO" on MDBK cells?
A) 41
